# Test system: Jurkat/DNR viability with daunorubicin, trypan blue, 7 d
# TEST_PROTOCOL: chemoreversal in ABCB1 cells, dose response, ABC transporter inhibitor project, paired ABCG2 counter-screen, SAR hit validation (AID 488973)
# CONDITION_LABEL: measured here: toxicity without chemotherapeutic (TD50)
Class assignment keyed on CC50, ranges class A: < 5 µM; class B: ≥ 5 µM and < 10 µM; class C: ≥ 10 µM

Known results for compounds:
compound=CC(=O)N1CCN(c2c(C)c(C)nc3cc(-c4cccc(F)c4)nn23)CC1 category="class C"
compound=O=C(c1ccoc1)N1CCN(c2cc(-c3cccnc3)nc3cc(-c4cccc(Cl)c4)nn23)CC1 category="class B"
compound=COc1ccc(-c2cc3nc(-c4ccccc4)cc(N4CCN(C(=O)c5ccoc5)CC4)n3n2)cc1 category="class B"
compound=Cc1nc2cc(-c3cccc(Cl)c3)nn2c(N2CCN(C(=O)c3ccco3)CC2)c1C category="class C"
compound=COc1ccc(-c2cc3nc(C)c(C)c(N4CCN(C(=O)c5ccco5)CC4)n3n2)cc1 category="class C"

Which CC50 category applies to COc1cccc(-c2cc3nc(-c4ccco4)cc(N4CCN(C(=O)c5ccoc5)CC4)n3n2)c1 here?
class B

----------
# Tested on: Jurkat/DNR viability with daunorubicin, trypan blue, 7 d
# TEST_PROTOCOL: chemoreversal in ABCB1 cells, dose response, ABC transporter inhibitor project, paired ABCG2 counter-screen, SAR hit validation (AID 488973)
# CONDITION_LABEL: measured here: toxicity without chemotherapeutic (TD50)
Please respond with 1 when measured CC50 is strictly beneath 6 µM, and with -1 in all other cases.

molecule=COc1ccc(-c2cc3nc(-c4ccccc4)cc(N4CCN(C(=O)c5ccsc5)CC4)n3n2)cc1 category=1

Is it true that CC50 reported for O=C(c1ccco1)N1CCN(c2cc(-c3ccccc3)nc3cc(-c4cccc(Cl)c4)nn23)CC1 is less than 6 µM?
1

Is it true that CC50 reported for Cc1nc2cc(-c3cccc(Cl)c3)nn2c(N2CCN(C(=O)c3ccsc3)CC2)c1C is less than 6 µM?
-1

----------
# System: Jurkat/DNR viability with daunorubicin, trypan blue, 7 d
# TEST_PROTOCOL: chemoreversal in ABCB1 cells, dose response, ABC transporter inhibitor project, paired ABCG2 counter-screen, SAR hit validation (AID 488973)
# CONDITION_LABEL: measured here: toxicity without chemotherapeutic (TD50)
CC50: recorded values

Recorded CC50, per entry:
molecule=Cc1cc(N2CCN(C(=O)c3ccco3)CC2)n2nc(C)c(-c3ccccc3)c2n1 measure=CC50 result="3.31 µM"
molecule=COc1cccc(-c2cc3nc(C)c(C)c(N4CCN(C(=O)c5ccoc5)CC4)n3n2)c1 measure=CC50 result="> 100 µM"
molecule=O=C(c1ccncc1)N1CCN(c2cc(-c3ccccc3)nc3cc(-c4cccc(Cl)c4)nn23)CC1 measure=CC50 result="10.9 µM"
molecule=COc1cccc(C(=O)N2CCN(c3cc(-c4ccccc4)nc4cc(-c5cccc(Cl)c5)nn34)CC2)c1 measure=CC50 result="> 100 µM"
molecule="O=C(C1CCCO1)N1CCN(c2c3c(nc4cc(-c5cccc(F)c5)nn24)CCCC3)CC1 (stereo not drawn)" measure=CC50 result="12.3 µM"

Entry COc1cccc(-c2cc3nc(C)c(C)c(N4CCN(Cc5ccco5)CC4)n3n2)c1 — recorded CC50 = > 100 µM

Entry COc1ccc(-c2[nH]nc3nc(N4CCN(C(=O)c5ccoc5)CC4)cc(C(F)(F)F)c23)cc1 — recorded CC50 = 0.455 µM

----------
# Tested on: Jurkat/DNR viability with daunorubicin, trypan blue, 7 d
# TEST_PROTOCOL: chemoreversal in ABCB1 cells, dose response, ABC transporter inhibitor project, paired ABCG2 counter-screen, SAR hit validation (AID 488973)
# CONDITION_LABEL: measured here: toxicity without chemotherapeutic (TD50)
Please respond with y when measured CC50 is strictly beneath 6 µM, and with n in all other cases.

compound=Cc1cc(N2CCN(C(=O)c3ccco3)CC2)n2nc(-c3ccccc3)nc2n1 category=n

Let's switch to this compound now.
Is it true that CC50 reported for Cc1nc2ncnn2c(N2CCN(C(=O)c3ccco3)CC2)c1Cc1ccccc1 is less than 6 µM?
n

----------
# Test system: Jurkat/DNR viability with daunorubicin, trypan blue, 7 d
# TEST_PROTOCOL: chemoreversal in ABCB1 cells, dose response, ABC transporter inhibitor project, paired ABCG2 counter-screen, SAR hit validation (AID 488973)
# CONDITION_LABEL: measured here: toxicity without chemotherapeutic (TD50)
Class assignment keyed on CC50, ranges lower range = under 5 µM, middle range = from 5 µM up to 10 µM, upper range = 10 µM and over

compound=COc1ccc(-c2cc3nc(-c4ccccc4)cc(N4CCN(C(=O)c5ccccc5)CC4)n3n2)cc1 category="upper range"
compound=Cc1nc2cc(-c3cccc(Cl)c3)nn2c(N2CCN(C(=O)c3ccoc3)CC2)c1C category="middle range"
compound=Cc1ccc(-c2cc3nc(-c4ccccc4)cc(N4CCN(C(=O)c5ccoc5)CC4)n3n2)cc1 category="middle range"
compound=COc1cccc(-c2cc(N3CCN(C(=O)c4ccoc4)CC3)n3nc(-c4cccc(OC)c4)cc3n2)c1 category="middle range"
compound=Cc1nc2cc(-c3ccc4c(c3)OCO4)nn2c(N2CCN(C(=O)c3ccoc3)CC2)c1C category="upper range"
compound=Cc1cc(N2CCN(C(=O)c3ccco3)CC2)n2nc(-c3ccc(F)cc3)cc2n1 category="lower range"
compound=O=C(c1ccoc1)N1CCN(c2cc(-c3ccco3)nc3cc(-c4ccccc4)nn23)CC1 category="middle range"
compound=COc1ccc(-c2cc3nc(C)c(C)c(N4CCN(C(C)=O)CC4)n3n2)cc1 category="upper range"
compound=COc1ccccc1-c1cc2nc(-c3ccccc3)cc(N3CCN(C(=O)c4ccoc4)CC3)n2n1 category="lower range"
compound=O=C(c1ccoc1)N1CCN(c2cc(-c3ccco3)nc3cc(-c4cccc(Cl)c4)nn23)CC1 category="middle range"

Which CC50 category applies to COc1cc(OC)cc(-c2cc3nc(C)c(C)c(N4CCN(C(=O)c5ccoc5)CC4)n3n2)c1 here?
middle range

Which CC50 category applies to Cc1nc2cc(-c3ccc(F)cc3)nn2c(N2CCN(C(=O)c3ccco3)CC2)c1C here?
middle range

Which CC50 category applies to O=C(c1ccco1)N1CCN(c2cc(Cc3ccccc3)nc3cc(-c4cccc(Cl)c4)nn23)CC1 here?
middle range

----------
# Test system: Jurkat/DNR viability with daunorubicin, trypan blue, 7 d
# TEST_PROTOCOL: chemoreversal in ABCB1 cells, dose response, ABC transporter inhibitor project, paired ABCG2 counter-screen, SAR hit validation (AID 488973)
# CONDITION_LABEL: measured here: toxicity without chemotherapeutic (TD50)
Please respond with Yes when measured CC50 is strictly beneath 5 µM, and with No in all other cases.

Known results for compounds:
compound=O=C(c1ccoc1)N1CCN(c2cc(-c3ccncc3)nc3cc(-c4cccc(Cl)c4)nn23)CC1 category=No
compound=O=C(c1ccoc1)N1CCN(c2cc(-c3ccccc3)nc3cc(-c4ccncc4)nn23)CC1 category=No
compound=O=C(c1ccco1)N1CCN(c2c3c(nc4cc(-c5cccc(F)c5)nn24)CCCC3)CC1 category=No
compound=O=C(c1ccco1)N1CCN(c2cc(-c3ccccc3)nc3cc(-c4cccc(F)c4)nn23)CC1 category=Yes

Is it true that CC50 reported for O=C(Cc1ccccc1)N1CCN(c2cc(-c3ccccc3)nc3cc(-c4cccc(Cl)c4)nn23)CC1 is less than 5 µM?
No

Is it true that CC50 reported for O=C(c1cccnc1)N1CCN(c2cc(-c3ccccc3)nc3cc(-c4cccc(Cl)c4)nn23)CC1 is less than 5 µM?
Yes

Every entry's value here was drawn from PubChem BioAssay AID488973.
